The reported measurements were obtained from patent US9938562B2.

Where a name gives a salt, the structure may show the parent alone.
Below, each entry is listed with its recorded melting point.
endpoint_label: melting point

- O=C(O)C1OC(Oc2cc3cc(Br)c(Br)cc3cc2O)C(O)C(O)C1O (as salt: salt) [Compound 29, 6,7-Dibromo-DHN-β-D-glucuronide CHA Salt]: 221 to 224 °C
- OC[C@H]1O[C@@H](Oc2cc3ccccc3cc2O)C(O)C1O (stereo partly drawn) [Compound 2, DHN-β-D-ribofuranoside]: 181 to 182 °C
- CC(=O)NC1C(Oc2cc3ccccc3cc2O)OC(CO)C(O)C1O [Compound 15, DHN-N-acetyl-β-D-glucosaminide]: 204 to 205 °C
- OCC1OC(Oc2cc3ccccc3cc2O)C(O)C(O)C1O [Compound 6, DHN-α-D-glucopyranoside]: 164 to 166 °C
- OCC1OC(Oc2cc3ccccc3cc2O)C(O)C(O)C1O [Compound 4, DHN-β-D-glucopyranoside]: > 210 °C (dec.)
- OCC1OC(Oc2cc3ccccc3cc2O)C(O)C(O)C1O [Compound 8, DHN-β-D-galactopyranoside]: > 230 °C (dec.)
- O=[N+]([O-])c1c(O)c(O[C@@H]2O[C@H](CO)C(O)C2O)cc2ccccc12 (stereo partly drawn) [Compound 19, 1-Nitro-DHN-β-D-ribofuranoside]: > 170 °C (dec.)
- O=C([O-])C1OC(Oc2cc3ccccc3cc2O)C(O)C(O)C1O.[Na+] [Compound 12b, DHN-β-D-glucuronide Sodium Salt]: 53 to 55 °C
- O=C(O)C1OC(Oc2cc3ccccc3cc2O)C(O)C(O)C1O (as salt: salt) [Compound 12a, DHN-β-D-glucuronide CHA Salt]: 223 to 224 °C
- OCC1OC(Oc2cc3cc(Br)c(Br)cc3cc2O)C(O)C(O)C1O [Compound 25, 6,7-Dibromo-DHN-β-D-galactopyranoside]: 256 to 257 °C
